Can you tell me inhibition at 10 µM for the items I'm about to list?
biological target: UniProt:O43613; assay: Calcium Accumulation in Cells (FLIPR), antagonism of orexin A; assay type: cell-based; conditions: measured at a concentration of 10 μM of compound; read-out: FLIPR hOx1R % inhibition value
Sequence (O43613 whole entry): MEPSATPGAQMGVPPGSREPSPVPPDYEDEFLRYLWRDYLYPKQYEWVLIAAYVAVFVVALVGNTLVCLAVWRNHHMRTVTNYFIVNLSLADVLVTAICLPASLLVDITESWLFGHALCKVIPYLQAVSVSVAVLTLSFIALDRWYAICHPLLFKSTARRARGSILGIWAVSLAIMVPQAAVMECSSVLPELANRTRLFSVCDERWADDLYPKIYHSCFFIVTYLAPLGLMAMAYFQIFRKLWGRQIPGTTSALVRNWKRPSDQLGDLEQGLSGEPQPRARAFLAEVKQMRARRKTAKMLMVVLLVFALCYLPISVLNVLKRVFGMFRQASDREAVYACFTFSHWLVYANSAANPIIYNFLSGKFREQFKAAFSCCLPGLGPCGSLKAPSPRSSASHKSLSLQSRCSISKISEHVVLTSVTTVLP
Give bare numbers, in %.

Some entries whose results are on file:
input: Need inhibition at 10 µM, item Cn1nc(-c2ccccc2)c2c(C(F)(F)F)cc(OCC(=O)NCc3cccc(Cl)c3)nc21 [Example 1.43]
output: 24

input: Need inhibition at 10 µM, item Cc1csc(C(C)NC(=O)COc2cc(C)c3c(C4CC4)nn(C)c3n2)n1 (stereo not shown) [Example 7.22]
output: 40

input: Need inhibition at 10 µM, item Cc1ccc(C(C)NC(=O)COc2cc(C)c3c(C4CC4)nn(C)c3n2)cn1 (stereo not shown) [Example 6.55]
output: 53

input: Need inhibition at 10 µM, item C[C@H](NC(=O)COc1cc(C(F)(F)F)c2c(-c3ccccc3)noc2n1)c1ccccc1 [Example 6.78]
output: 43

input: Need inhibition at 10 µM, item Cn1nc(-c2ccccc2)c2c(C(F)(F)F)cc(OCC(=O)NCc3cccc(F)c3)nc21 [Example 1.8]
output: 39

input: Need inhibition at 10 µM, item Cc1cc(OCC(=O)NCCc2ccccc2)nc2c1c(C1CC1)nn2C [Example 6.49]
output: 21

input: Need inhibition at 10 µM, item C[C@H](NC(=O)COc1cc(C(F)(F)F)c2c(-c3ccncc3)nn(C)c2n1)c1ccccc1 [Example 1.25]
output: 54

input: Need inhibition at 10 µM, item COc1ccc([C@H](C)NC(=O)COc2nc3c(cc2C)c(C2CC2)nn3C)cc1 [Example 6.76]
output: 23

input: Need inhibition at 10 µM, item Cc1cc(OCC(=O)NCCCc2ccccc2)nc2c1c(C1CC1)nn2C [Example 6.50]
output: 10

input: Need inhibition at 10 µM, item Cc1cc(OCC(=O)N[C@H]2CCc3ccccc32)nc2c1c(C1CC1)nn2C [Example 1.75]
output: 27

Give me inhibition at 10 µM for each of these compounds, listed below.
1. Cc1cc(OCC(=O)NC2CCCc3ncccc32)nc2c1c(C1CC1)nn2C (stereo not shown) [Example 7.8]
2. Cc1cc(OCC(=O)NCC(C)C)nc2c1c(C1CC1)nn2C [Example 6.45]
3. CCCNC(=O)COc1cc(C(F)(F)F)c2c(-c3ccccc3)nn(C)c2n1 [Example 1.55]
4. Cc1cc(OCC(=O)NC2CCCc3c2cnn3C)nc2c1c(C1CC1)nn2C (stereo not shown) [Example 7.24]
5. CCn1ccc(C(C)NC(=O)COc2cc(C)c3c(C4CC4)nn(C)c3n2)n1 (stereo not shown) [Example 6.54]
6. COc1ccc([C@H](C)N(C)C(=O)COc2cc(C)c3c(C4CC4)nn(C)c3n2)cc1 [Example 6.51]
7. Cc1cc(OCC(=O)NC(C)c2ccccn2)nc2c1c(-c1ccccc1)nn2C (stereo not shown) [Example 1.65]

output:
1: 26; 2: 20; 3: 23; 4: 28; 5: 44; 6: 26; 7: 26

Give me inhibition at 10 µM for each of these compounds, listed below.
1. Cc1cc(OCC(=O)NCc2cccc3cnn(C)c23)nc2c1c(C1CC1)nn2C [Example 7.10]
2. Cn1nc(-c2ccccc2)c2c(C(F)(F)F)cc(OCC(=O)NC3CC3)nc21 [Example 1.53]
3. Cc1nn(C)c(C)c1C(C)NC(=O)COc1cc(C)c2c(C(C)C)nn(C)c2n1 (stereo not shown) [Example 6.29]
4. Cn1nc(-c2ccccc2)c2c(C(F)(F)F)cc(OCC(=O)NC3CCCCC3)nc21 [Example 1.9]
5. Cc1cc(OCC(=O)NC2CCc3cc(F)ccc32)nc2c1c(C1CC1)nn2C (stereo not shown) [Example 6.40]
6. Cc1cc(OCC(=O)NCc2ccc3c(c2)OCO3)nc2c1c(-c1ccccc1)nn2C [Example 1.15]

output:
1. 34
2. 14
3. 36
4. 32
5. 21
6. 44
